test system: RPMI-8226; test: NCI tumour cell line growth inhibition, 48 h
Active and inactive are the calls of the source. Rule as the data show it: active = GI50 up to about 1.1 µM and inactive = higher.
Hello, when you answer, please use one of the following outcomes: true (1) for active, false (0) for inactive

stdin: Called result for CC[C@@H](/C=C\CCC1(C[C@@H](N)CCC=C(C)C)OCCO1)O[Si](C(C)C)(C(C)C)C(C)C
stdout: false (0)

stdin: What did this assay record as the result for N#CCC(=O)N/N=C1/C(=O)N(c2cc(Cl)ccc2Cl)C(=O)C(=O)C1c1nc2ccccc2s1 (stereo not drawn) ?
stdout: false (0)

stdin: // outcome(item) with item = Cc1c2c(c(C)c3c4c(oc13)CCCC4)C=NCC2
stdout: true (1)

stdin: Write down the call the test reported for this compound. Item: Nc1n[nH]c2nc3ccc(C(F)(F)F)cc3nc12
stdout: false (0)

stdin: Recorded test outcome, item Nc1nc(SC/C=C/c2ccccc2)c2[nH]cnc2n1
stdout: false (0)

stdin: Assay outcome for CC1(C)CC2(CC(C)(C)N1O)NC(=O)OC2=O : what was it?
stdout: false (0)

stdin: Identify the outcome logged in this assay for the compound shown: COCN1C(=O)[C@@H]2CCCN2C(=O)c2ccc(N)cc21
stdout: false (0)

stdin: Record request — test call for NC(=O)c1c(NC=O)ncn1C1OCC(O)C(O)C1O (stereo not drawn)
stdout: false (0)

stdin: What classification did O=C1c2ccccc2C(=O)c2c(NCC(O)CO)ccc(NCC(O)CO)c21 (stereo not drawn) end up with in this test?
stdout: false (0)

stdin: Can you look up the reported call for CNC(=O)CCCNC(=O)CCCC(=O)OC for me?
stdout: false (0)

stdin: Per the assay record, what outcome was assigned to N#CC(NNC(=O)c1ccccc1O)c1ccc(O)cc1 (stereo not drawn) ?
stdout: false (0)

stdin: Assay result, entry CN1CCN(CC(=O)N2c3ccccc3Sc3cc4ccccc4cc32)CC1 — outcome?
stdout: false (0)

stdin: How was Nc1nc(O)c2c(n1)NCN(c1ccc(S(N)(=O)=O)cc1)C2 classified in this test?
stdout: false (0)

stdin: Any idea what this test logged for O=C(/C=C1\N=C(c2ccccc2)N(c2nc3c(Cl)cc(Cl)cc3s2)C1=O)/C=C/c1ccccc1 ?
stdout: false (0)

stdin: Assay outcome for CC1OC(OC2C(CO)OC(O[C@H]3CC[C@@]4(C)C(=CC[C@H]5[C@@H]6C[C@@H]7O[C@](O)(CC[C@@H](C)COC8OC(CO)C(O)C(O)C8O)[C@@H](C)[C@@H]7[C@@]6(C)CC[C@@H]54)C3)C(OC3OC(C)C(O)C(O)C3O)C2O)C(O)C(O)C1O (stereo partly drawn) : what was it?
stdout: false (0)

stdin: State the result this test recorded for S=P(N1CCCC1)(N1CC1)N1CC1 .
stdout: false (0)

stdin: Per the assay record, what outcome was assigned to COc1ccc(C(=O)Cc2cc(OC)ccc2OC)cc1 ?
stdout: false (0)

stdin: Look up the recorded call for c1ccc(SCCCC(Sc2ccccc2)Sc2ccccc2)cc1 in this test.
stdout: false (0)
